# Tested on: A. baumannii 1258916
# Assay protocol: microbe, parasite or virus in culture
# Format: cell-based, Acinetobacter baumannii
# Test parameters: Acinetobacter baumannii, 1258916, read-out: MIC, A. baumannii 1258916
Measure: MIC

Sample records with MIC:
Reported MIC for O=C(O)c1c(F)ccc2c1OB(O)[C@@H](NC(=O)[C@H](NC(=O)N1CCN(C3CCN(C(=O)c4cccc(O)c4)CC3)C1=O)c1cc(F)c(O)c(O)c1Cl)C2 (single isomer, unassigned) was 8 to 16 µg/mL

Reported MIC for O=C(NCCS(=O)(=O)N1CCN(C(=O)NC(C(=O)N[C@H]2Cc3ccc(F)c(C(=O)O)c3OB2O)c2cc(F)c(O)c(O)c2Cl)C1=O)c1ccncc1 (stereo partly shown) was < 1 µg/mL

Reported MIC for O=C(CN1CCN(C(=O)N[C@@H](C(=O)N[C@H]2Cc3ccc(F)c(C(=O)O)c3OB2O)c2cc(F)c(O)c(O)c2Cl)C(=O)C1=O)NCc1nccs1 was < 1 µg/mL

Continue with the molecule presented below.
Reported MIC for O=C(NCCCN1CCN(C(=O)N[C@H](C(=O)N[C@H]2Cc3ccc(F)c(C(=O)O)c3OB2O)c2cc(F)c(O)c(O)c2Cl)C1=O)c1cccc(O)c1 was > 128 µg/mL

---

# Tested on: A. baumannii CDC-0033
# Assay protocol: microbe, parasite or virus in culture
# Format: cell-based
# Test parameters: Acinetobacter baumannii, CDC0033, read-out: MIC, A. baumannii CDC-0033
What MIC was measured for each of the following?

Sample records with MIC:
Reported MIC for O=C(NCCS(=O)(=O)N1CCN(C(=O)NC(C(=O)N[C@H]2Cc3ccc(F)c(C(=O)O)c3OB2O)c2cc(F)c(O)c(O)c2Cl)C1=O)c1cccc(O)c1 (some centres unmarked) [Example 261] was 2 to 4 µg/mL

Reported MIC for CN(CCN1CCN(C(=O)NC(C(=O)N[C@H]2Cc3ccc(F)c(C(=O)O)c3OB2O)c2cc(F)c(O)c(O)c2Cl)C(=O)C1=O)S(=O)(=O)c1cccc(C(N)=O)c1 (some centres unmarked) [Example 224] was 8 to 16 µg/mL

Reported MIC for O=C(NCCCN1CCN(C(=O)NC(C(=O)N[C@H]2Cc3ccc(F)c(C(=O)O)c3OB2O)c2cc(F)c(O)c(O)c2Cl)C(=O)C1=O)Nc1cccnc1 (some centres unmarked) [Example 213] was 8 to 16 µg/mL

Reported MIC for O=C(O)c1c(F)ccc2c1OB(O)[C@@H](NC(=O)C(NC(=O)N1CCN(Cc3ccc(O)c(O)c3Cl)C(=O)C1=O)c1ccc(P(=O)(O)O)cc1)C2 (some centres unmarked) [Example 8] was < 1 µg/mL

Continue with the compound presented below.
Reported MIC for O=C(NCCCN1CCN(C(=O)N[C@@H](C(=O)N[C@H]2Cc3ccc(F)c(C(=O)O)c3OB2O)c2cc(F)c(O)c(O)c2Cl)C(=O)C1=O)c1cccnc1 [Example 210] was 8 to 16 µg/mL

---

# Test system: P. aeruginosa CDC-0110
# Assay protocol: microbe, parasite or virus in culture
# Type: cell-based
# Test parameters: Pseudomonas aeruginosa, CDC0110, read-out: Minimum inhibitory concentration, P. aeruginosa CDC-0110
Measure: MIC

Sample records with MIC:
Reported MIC for O=C(NCCS(=O)(=O)N1CCN(C(=O)N[C@@H](C(=O)N[C@H]2Cc3ccc(F)c(C(=O)O)c3OB2O)c2cc(F)c(O)c(O)c2Cl)C1=O)c1nccs1 [Example 264] was < 1 µg/mL

Reported MIC for O=C(O)c1c(F)ccc2c1OB(O)[C@@H](NC(=O)[C@H](NC(=O)N1CCN(C3CCN(C(=O)Nc4cc(O)cc(O)c4)CC3)C1=O)c1cc(F)c(O)c(O)c1Cl)C2 [Example 456] was < 1 µg/mL

Reported MIC for O=C(O)c1c(F)ccc2c1OB(O)[C@@H](NC(=O)[C@H](NC(=O)N1CCN(C3CCN(C(=O)Nc4cccc(O)c4)CC3)C1=O)c1cc(F)c(O)c(O)c1Cl)C2 [Example 445] was < 1 µg/mL

Reported MIC for O=C(NCCCN1CCN(C(=O)N[C@H](C(=O)N[C@H]2Cc3ccc(F)c(C(=O)O)c3OB2O)c2cc(F)c(O)c(O)c2Cl)C(=O)C1=O)c1ccc(O)cc1Cl (single isomer, unassigned) [Example 470] was 8 to 16 µg/mL

Reported MIC for O=C(NCCCS(=O)(=O)N1CCN(C(=O)N[C@H](C(=O)N[C@H]2Cc3ccc(F)c(C(=O)O)c3OB2O)c2cc(F)c(O)c(O)c2Cl)C1=O)c1cccc(O)c1 [Example 270] was > 128 µg/mL

// batch mode: one MIC value per listed entry
1. O=C(O)c1c(F)ccc2c1OB(O)[C@@H](NC(=O)[C@H](NC(=O)N1CCN(C3CCN(C(=O)Nc4ccc(F)c(O)c4)CC3)C1=O)c1cc(F)c(O)c(O)c1Cl)C2 (single isomer, unassigned) [Example 449]
2. O=C(O)c1c(F)ccc2c1OB(O)[C@@H](NC(=O)[C@H](NC(=O)N1CCN(C3CCN(C(=O)Nc4cccc(O)c4F)CC3)C1=O)c1cc(F)c(O)c(O)c1Cl)C2 (single isomer, unassigned) [Example 446]
3. O=C(O)c1c(F)ccc2c1OB(O)[C@@H](NC(=O)C(NC(=O)N1CCN(Cc3ccc(O)c(O)c3Cl)C(=O)C1=O)c1cc(F)c(O)c(O)c1Cl)C2 (some centres unmarked) [Example 292]

Reply:
< 1 µg/mL
< 1 µg/mL
> 128 µg/mL

---

What EC50 was measured for each of the following?
# Target or test system: UniProt P0AD68
# Assay protocol: Bocillin-FL fluorescence polarization competition binding, E. coli PBP3

Sample records with EC50:
Reported EC50 for O=C(NC(C(=O)N[C@H]1Cc2cccc(C(=O)O)c2OB1O)c1ccc(P(=O)(O)O)cc1)c1ccc2ccnn2c1 (stereo partly drawn) was 50 to 250 µM

Reported EC50 for N[C@@H](C(=O)N[C@H]1Cc2cccc(C(=O)O)c2OB1O)c1ccc(P(=O)(O)O)cc1 (single isomer, unassigned) was > 250 µM

Continue with the compound presented below.
Reported EC50 for O=C(NCCCN1CCN(C(=O)NC(C(=O)N[C@H]2Cc3ccc(F)c(C(=O)O)c3OB2O)c2cc(F)c(O)c(O)c2Cl)C(=O)C1=O)c1c(F)ccc(O)c1Cl (stereo partly drawn) was < 10 µM

---

# Target or test system: PBP3 from Escherichia coli (K-12) (Escherichia coli, UniProt P0AD68)
# Sequence (P0AD68 1-577): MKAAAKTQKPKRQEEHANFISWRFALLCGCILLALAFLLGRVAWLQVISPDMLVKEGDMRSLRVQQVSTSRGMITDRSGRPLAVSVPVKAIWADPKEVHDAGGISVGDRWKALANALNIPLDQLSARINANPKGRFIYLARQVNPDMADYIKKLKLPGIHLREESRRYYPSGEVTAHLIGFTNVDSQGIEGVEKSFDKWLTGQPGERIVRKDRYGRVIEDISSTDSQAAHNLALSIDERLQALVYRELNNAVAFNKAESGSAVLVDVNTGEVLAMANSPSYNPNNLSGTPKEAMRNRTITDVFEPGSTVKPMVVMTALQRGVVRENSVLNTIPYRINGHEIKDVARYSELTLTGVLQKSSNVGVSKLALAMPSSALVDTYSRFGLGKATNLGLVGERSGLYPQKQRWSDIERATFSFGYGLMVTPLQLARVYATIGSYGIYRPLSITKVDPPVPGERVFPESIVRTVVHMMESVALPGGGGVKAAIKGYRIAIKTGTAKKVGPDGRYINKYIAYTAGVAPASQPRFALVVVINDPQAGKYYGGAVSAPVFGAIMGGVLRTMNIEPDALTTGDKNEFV
# Assay protocol: Bocillin-FL fluorescence polarization competition binding, E. coli PBP3
What EC50 was measured for each of the following?

Reported EC50 for CC(=O)N1CCC[C@H]1C(=O)NC(C(=O)N[C@H]1Cc2cccc(C(=O)O)c2OB1O)c1ccc(P(=O)(O)O)cc1 (stereo partly shown) was > 250 µM

Reported EC50 for O=C(O)c1cccc2c1OB(O)[C@@H](NC(=O)C(NS(=O)(=O)C1CC1)c1ccc(P(=O)(O)O)cc1)C2 (stereo partly shown) was 50 to 250 µM

// batch mode: one EC50 value per listed entry
1. O=C(O)c1cccc2c1OB(O)[C@@H](NC(=O)[C@H](NC(=O)c1ccn[nH]c1=O)c1ccc(P(=O)(O)O)cc1)C2 (single isomer, unassigned)
2. O=C(NCCCN1CCN(C(=O)NC(C(=O)N[C@H]2Cc3ccc(F)c(C(=O)O)c3OB2O)c2cc(F)c(O)c(O)c2Cl)C(=O)C1=O)c1ccc(F)c(O)c1F (stereo partly shown)
3. Cc1cc(C(=O)NCCCN2CCN(C(=O)N[C@@H](C(=O)N[C@H]3Cc4ccc(F)c(C(=O)O)c4OB3O)c3cc(F)c(O)c(O)c3Cl)C(=O)C2=O)ccn1
4. CCN1CCN(C(=O)N[C@@H](C(=O)N[C@H]2Cc3cccc(C(=O)O)c3OB2O)c2ccc(P(=O)(O)O)c(F)c2)C(=O)C1=O (single isomer, unassigned)
5. O=C(NCCCN1CCN(C(=O)N[C@@H](C(=O)N[C@H]2Cc3ccc(F)c(C(=O)O)c3OB2O)c2cc(F)c(O)c(O)c2Cl)C(=O)C1=O)c1ccncc1
6. O=C(O)c1cccc2c1OB(O)[C@@H](NC(=O)[C@@H](NC(=O)c1cnc3sccn3c1=O)c1ccc(P(=O)(O)O)cc1)C2 (single isomer, unassigned)
7. O=C(NCCCN1CCN(C(=O)N[C@@H](C(=O)N[C@H]2Cc3ccc(F)c(C(=O)O)c3OB2O)c2cc(F)c(O)c(O)c2Cl)C(=O)C1=O)c1cc(F)nc(F)c1 (racemic)

Reply:
1. < 10 µM
2. < 10 µM
3. < 10 µM
4. < 10 µM
5. < 10 µM
6. 10 to 50 µM
7. < 10 µM

---

What EC50 was measured for each of the following?
# Target or test system: UniProt D0C8Z9
# Sequence (D0C8Z9 whole entry): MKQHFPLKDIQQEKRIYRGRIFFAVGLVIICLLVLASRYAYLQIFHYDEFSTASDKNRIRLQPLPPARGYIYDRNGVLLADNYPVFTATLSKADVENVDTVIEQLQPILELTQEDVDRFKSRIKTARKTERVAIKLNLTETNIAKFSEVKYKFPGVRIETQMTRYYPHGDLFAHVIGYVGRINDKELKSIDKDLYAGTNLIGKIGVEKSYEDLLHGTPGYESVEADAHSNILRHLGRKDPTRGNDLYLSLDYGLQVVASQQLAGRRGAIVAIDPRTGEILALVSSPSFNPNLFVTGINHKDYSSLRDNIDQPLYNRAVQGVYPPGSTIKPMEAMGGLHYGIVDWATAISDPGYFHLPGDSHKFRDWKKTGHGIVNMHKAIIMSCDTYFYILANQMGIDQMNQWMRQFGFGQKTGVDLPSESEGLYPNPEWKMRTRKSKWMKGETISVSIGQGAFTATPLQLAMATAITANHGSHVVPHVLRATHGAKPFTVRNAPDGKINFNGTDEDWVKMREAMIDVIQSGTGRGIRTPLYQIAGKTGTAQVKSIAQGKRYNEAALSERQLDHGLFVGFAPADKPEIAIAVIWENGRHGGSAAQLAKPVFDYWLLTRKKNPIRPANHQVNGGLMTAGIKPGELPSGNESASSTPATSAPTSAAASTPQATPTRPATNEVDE
# Assay protocol: Bocillin-FL competition binding via gel filtration, A. baumannii PBP2

Sample records with EC50:
Reported EC50 for O=C(NCCCN1CCN(C(=O)NC(C(=O)N[C@H]2Cc3ccc(F)c(C(=O)O)c3OB2O)c2cc(F)c(O)c(O)c2Cl)C(=O)C1=O)c1cc(F)c(F)c(O)c1F (some centres unmarked) was < 10 µM

Reported EC50 for O=C(O)c1c(F)ccc2c1OB(O)[C@@H](NC(=O)[C@H](NC(=O)N1CCN(C3CCN(C(=O)c4cc(O)cc(O)c4)CC3)C1=O)c1cc(F)c(O)c(O)c1Cl)C2 (single isomer, unassigned) was < 10 µM

Reported EC50 for O=C(O)c1c(F)ccc2c1OB(O)[C@@H](NC(=O)[C@H](NC(=O)N1CCN(Cc3ccc(O)c(O)c3Cl)C(=O)C1=O)c1ccc(P(=O)(O)O)c(F)c1F)C2 was 10 to 50 µM

Reported EC50 for NCc1ccc(C(=O)N2CCC(N3CCN(C(=O)NC(C(=O)N[C@H]4Cc5ccc(F)c(C(=O)O)c5OB4O)c4cc(F)c(O)c(O)c4Cl)C3=O)CC2)cc1 (single isomer, unassigned) was 10 to 50 µM

Reported EC50 for O=C(O)c1c(F)ccc2c1OB(O)[C@@H](NC(=O)[C@H](NC(=O)N1CCN(C3CCN(C(=O)c4cc(O)ccc4Cl)CC3)C1=O)c1cc(F)c(O)c(O)c1Cl)C2 (single isomer, unassigned) was < 10 µM

// batch mode: one EC50 value per listed entry
1. O=C(NCCCN1CCN(C(=O)N[C@@H](C(=O)N[C@H]2Cc3ccc(F)c(C(=O)O)c3OB2O)c2cc(F)c(O)c(O)c2Cl)C(=O)C1=O)c1ccc(O)cc1F (racemic)
2. O=C(NCCS(=O)(=O)N1CCN(C(=O)N[C@H](C(=O)N[C@H]2Cc3ccc(F)c(C(=O)O)c3OB2O)c2ccc(P(=O)(O)O)cc2)C1=O)c1ccc(O)c(O)c1Cl
3. O=C(NCCN1CCN(C(=O)N[C@@H](C(=O)N[C@H]2Cc3ccc(F)c(C(=O)O)c3OB2O)c2cc(F)c(O)c(O)c2Cl)C1=O)Nc1ccc(O)cc1

Reply:
1: < 10 µM; 2: 10 to 50 µM; 3: 10 to 50 µM

// batch mode: one EC50 value per listed entry
1. O=C(O)c1c(F)ccc2c1OB(O)[C@@H](NC(=O)[C@H](NC(=O)N1CCN(C3CCN(C(=O)Nc4cc(O)c(O)c(Cl)c4)CC3)C1=O)c1ccc(P(=O)(O)O)cc1)C2 (single isomer, unassigned)
2. O=C(O)c1c(F)ccc2c1OB(O)[C@@H](NC(=O)[C@H](NC(=O)N1CCN(Cc3ccc(O)c(O)c3Cl)C(=O)C1=O)c1cc(F)c(P(=O)(O)O)c(F)c1)C2
3. O=C(O)c1c(F)ccc2c1OB(O)[C@@H](NC(=O)[C@H](NC(=O)N1CCN(C3CCN(C(=O)c4ccc(F)c(O)c4Cl)CC3)C1=O)c1cc(F)c(O)c(O)c1Cl)C2

Reply:
1. < 10 µM
2. < 10 µM
3. < 10 µM

Values compiled from patent US20240270762A1.
